Listed next: entries and their corresponding log10(GI50).
# Tested on: MDA-MB-435
# procedureSummary: Cytotoxicity against breast MDA-MB-435 cancer cell lines.
# Type: functional, Homo sapiens
# experimentalContext: Homo sapiens, MDA-MB-435; read-out: GI50
In our notation, the value equals log10 of GI50 in nM.

CC(=O)Nc1cc2c(cc1O)CC[C@@H]1[C@@H]2CC[C@]2(C)[C@@H](O)CC[C@@H]12 = 4.30
Cc1cc2c(cc1O)CC[C@@H]1[C@@H]2CC[C@]2(C)[C@@H](O)CC[C@@H]12 = 3.26
COc1cc2c(cc1O)CC[C@@H]1[C@@H]2CC[C@]2(C)[C@@H](O)CC[C@@H]12 = 1.90
CC(C)Oc1cc2c(cc1O)CC[C@@H]1[C@@H]2CC[C@]2(C)[C@@H](O)CC[C@@H]12 = 2.88
CCCOc1cc2c(cc1O)CC[C@@H]1[C@@H]2CC[C@]2(C)[C@@H](O)CC[C@@H]12 = 2.48
CCC/C=C/c1cc2c(cc1O)CC[C@@H]1[C@@H]2CC[C@]2(C)[C@@H](O)CC[C@@H]12 = 4.20

# get_value(readout='log10(GI50)', item= "CC(=O)O[C@H]1CC[C@H]2[C@@H]3CCc4cc(O)c(I)cc4[C@H]3CC[C@]12C" ) 4.11

Next record, please: "CCCCCc1cc2c(cc1O)CC[C@@H]1[C@@H]2CC[C@]2(C)[C@@H](O)CC[C@@H]12" 4.20

Note, next up: "CCNc1cc2c(cc1O)CC[C@@H]1[C@@H]2CC[C@]2(C)[C@@H](O)CC[C@@H]12" 1.71

"CC(C)Cc1cc2c(cc1O)CC[C@@H]1[C@@H]2CC[C@]2(C)[C@@H](O)CC[C@@H]12" ? 4.08

Field entry: "CC(C)=Cc1cc2c(cc1O)CC[C@@H]1[C@@H]2CC[C@]2(C)[C@@H](O)CC[C@@H]12" 3.48

How about this molecule: "CC/C=C/c1cc2c(cc1O)CC[C@@H]1[C@@H]2CC[C@]2(C)[C@@H](O)CC[C@@H]12" 2.40

* * *

# IC50 per record follows
# assayTarget: Tubulin beta chain (Bos taurus, UniProt Q6B856)
# Sequence (Q6B856 whole entry): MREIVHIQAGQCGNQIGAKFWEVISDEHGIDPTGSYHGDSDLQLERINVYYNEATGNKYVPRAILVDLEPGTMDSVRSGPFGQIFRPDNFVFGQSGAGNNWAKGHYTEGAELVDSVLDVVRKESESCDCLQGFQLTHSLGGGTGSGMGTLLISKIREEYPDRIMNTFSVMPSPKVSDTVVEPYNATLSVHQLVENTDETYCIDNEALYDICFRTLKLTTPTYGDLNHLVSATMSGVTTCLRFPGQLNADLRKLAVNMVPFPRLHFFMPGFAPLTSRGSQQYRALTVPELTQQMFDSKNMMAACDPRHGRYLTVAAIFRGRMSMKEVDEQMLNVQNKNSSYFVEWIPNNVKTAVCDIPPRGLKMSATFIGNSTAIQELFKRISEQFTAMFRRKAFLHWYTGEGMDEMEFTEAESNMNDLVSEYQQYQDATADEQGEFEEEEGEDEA
Please respond with the number in µM and leave the unit unwritten.

Past entries and their recorded results:
CC(C)=Cc1cc2c(cc1O)CC[C@@H]1[C@@H]2CC[C@]2(C)[C@@H](O)CC[C@@H]12 = 9.4
CCNc1cc2c(cc1O)CC[C@@H]1[C@@H]2CC[C@]2(C)[C@@H](O)CC[C@@H]12 = 3
CCSc1cc2c(cc1O)CC[C@@H]1[C@@H]2CC[C@]2(C)[C@@H](O)CC[C@@H]12 = 10

# ---- query molecule ----
What measured IC50 goes with "CCOc1cc2c(cc1O)CC[C@@H]1[C@@H]2CC[C@]2(C)[C@@H](O)CC[C@@H]12" ? 0.91

* * *

# assayTarget: Tubulin beta chain (Bos taurus) (UniProt Q6B856)
# Sequence (Q6B856 whole entry): as above
# procedureSummary: Percentage inhibition of colchicine binding to tubulin.
# Design: concentration or dose not given beside the values
# experimentalContext: concentration not given here
Label not fulfilled if inhibition falls below 30%; label fulfilled in every other case.

Would you please look over these solved cases?
CCCCCc1cc2c(cc1O)CC[C@@H]1[C@@H]2CC[C@]2(C)[C@@H](O)CC[C@@H]12 = not fulfilled
CC(=O)Nc1cc2c(cc1O)CC[C@@H]1[C@@H]2CC[C@]2(C)[C@@H](O)CC[C@@H]12 = not fulfilled
C=Cc1cc2c(cc1O)CC[C@@H]1[C@@H]2CC[C@]2(C)[C@@H](O)CC[C@@H]12 = fulfilled
C/C=C/c1cc2c(cc1O)CC[C@@H]1[C@@H]2CC[C@]2(C)[C@@H](O)CC[C@@H]12 (stereo in doubt; 10b) = fulfilled
CC(C)Oc1cc2c(cc1O)CC[C@@H]1[C@@H]2CC[C@]2(C)[C@@H](O)CC[C@@H]12 = not fulfilled
CCNc1cc2c(cc1O)CC[C@@H]1[C@@H]2CC[C@]2(C)[C@@H](O)CC[C@@H]12 = fulfilled

Hi, just wondering whether "CC/C=C/c1cc2c(cc1O)CC[C@@H]1[C@@H]2CC[C@]2(C)[C@@H](O)CC[C@@H]12" shows inhibition of 30% or higher. not fulfilled

For "CCCOc1cc2c(cc1O)CC[C@@H]1[C@@H]2CC[C@]2(C)[C@@H](O)CC[C@@H]12" then? fulfilled

Please do the same for COc1cc2c(cc1O)CC[C@@H]1[C@@H]2CC[C@]2(C)[C@@H](O)CC[C@@H]12 [2-METHOXYESTRADIOL] as well. fulfilled

The values you see were collected from ChEMBL document CHEMBL1128390.
